# Tested on: immortalized murine embryonic fibroblasts (Mef)
# assay.text: Pooled negative selection RNAi screening (deep sequencing)
# Assay type: cell-based
# test.conditions: deep sequencing reads, on dox compared to initial representation
Please respond with reported Fold depletion in Mef for every item in the list.
Answer with a number only, understood to be in Fold.

Lab note: Lin28.2430: neutral control shRNA, SEQ ID NO: 201 (nucleic acid) TGCTGTTGACAGTGAGCGATGGCCTAGTTGTGTAAATATATAGTGAAGCCACAGATGTATATATTTACACAACTAGGCCACTGCCTACTGCCTCGGA gave Fold depletion in Mef of 0.89

For record Acpp.818: shRNA, SEQ ID NO: 87 (nucleic acid) TGCTGTTGACAGTGAGCGAAAAGAGAAATCTCGACTCCAATAGTGAAGCCACAGATGTATTGGAGTCGAGATTTCTCTTTCTGCCTACTGCCTCGGA the listed Fold depletion in Mef is 0.85

Measured Fold depletion in Mef, BRAF.3826: neutral control shRNA, SEQ ID NO: 192 (nucleic acid) TGCTGTTGACAGTGAGCGCCCCATTGTTTCTTCCAACTTATAGTGAAGCCACAGATGTATAAGTTGGAAGAAACAATGGGATGCCTACTGCCTCGGA : 0.87

Recorded result, Centa1.940: shRNA, SEQ ID NO: 106 (nucleic acid) TGCTGTTGACAGTGAGCGCCCGAAGGCTCATGTACTTCAATAGTGAAGCCACAGATGTATTGAAGTACATGAGCCTTCGGTTGCCTACTGCCTCGGA , Fold depletion in Mef: 1.13
